method_summary: Inhibition of PKA (unknown origin) after 60 mins by Z-LYTE kinase assay
Parameters: species or system Homo sapiens
property_measured: pIC50
Scale explanation: pIC50 corresponds to minus log10 of a concentration expressed in moles per litre.

Given CN[C@@H]1C[C@H]2O[C@@](C)([C@@H]1OC)n1c3ccccc3c3c4c(c5c6ccccc6n2c5c31)C(=O)NC4 , respond with its pIC50.
8.09

====

target: RAC-alpha serine/threonine-protein kinase (Homo sapiens)
property_measured: IC50 (nM)
Respond numerically; units are nM and should not be typed.

Consider the following illustrative entries.
{"smiles_data": "Cn1ncc(Cl)c1-c1csc(C(=O)NC2(c3ccc(F)cc3)CCNCC2)c1", "IC50, nM": 320}
{"smiles_data": "Cn1ncc(Cl)c1-c1cc(C(=O)NC2(c3ccc(Cl)c(Cl)c3)CCNCC2)oc1Cl", "IC50, nM": 61}
{"smiles_data": "Cn1ncc(Cl)c1-c1c(Cl)c(C(=O)NC2(c3ccc(Cl)c(Cl)c3)CCNCC2)n(C)c1Cl", "IC50, nM": 850}

Provide measured IC50 on RAC-alpha serine/threonine-protein kinase (Homo sapiens) for Cn1ncc(Cl)c1-c1oc(C(=O)NC2(c3ccc(Cl)c(Cl)c3)CCNCC2)cc1Br please.
1480

Provide measured IC50 on RAC-alpha serine/threonine-protein kinase (Homo sapiens) for Cn1ncc(Br)c1-c1ccc(C(=O)NC2(c3ccc(Cl)c(Cl)c3)CCNCC2)cc1 please.
1400

====

method_summary: Antiproliferative activity against human HCT116 cells after 72 hrs by SRB assay
Assay type: functional, cell-based
run_conditions: HCT-116, 72 h
Label fulfilled when IC50 is strictly below 8 µM; at or above that, label not fulfilled.

{"smiles_data": "Cn1ncc(Cl)c1-c1csc(C(=O)NC2(c3ccc(F)cc3)CCNCC2)c1", "class_label": "not fulfilled"}
{"smiles_data": "Cn1ncc(Cl)c1-c1coc(C(=O)NC2(c3ccc(F)cc3)CCNCC2)c1", "class_label": "not fulfilled"}
{"smiles_data": "Cn1ncc(Br)c1-c1ccc(C(=O)NC2(c3ccc(Cl)c(Cl)c3)CCNCC2)cc1", "class_label": "not fulfilled"}
{"smiles_data": "Cn1ncc(Br)c1-c1csc(C(=O)NC2(c3ccc(F)cc3)CCNCC2)c1", "class_label": "not fulfilled"}
{"smiles_data": "Cn1ncc(Cl)c1-c1cc(C(=O)NC2(c3ccc(F)cc3)CCNCC2)oc1Cl", "class_label": "fulfilled"}
{"smiles_data": "Cn1ncc(Br)c1-c1cc(C(=O)NC2(c3ccc(Cl)c(Cl)c3)CCNCC2)n(C)c1Br", "class_label": "fulfilled"}

Attention now shifts to the item below.
Determine if Cn1ncc(Cl)c1-c1cc(C(=O)NC2(c3ccc(Cl)c(Cl)c3)CCNCC2)oc1Cl shows IC50 strictly lower than 8 µM.
fulfilled

====

target: Testis-specific serine/threonine-protein kinase 1 (Mus musculus, UniProt Q61241)
Sequence (Q61241 whole entry): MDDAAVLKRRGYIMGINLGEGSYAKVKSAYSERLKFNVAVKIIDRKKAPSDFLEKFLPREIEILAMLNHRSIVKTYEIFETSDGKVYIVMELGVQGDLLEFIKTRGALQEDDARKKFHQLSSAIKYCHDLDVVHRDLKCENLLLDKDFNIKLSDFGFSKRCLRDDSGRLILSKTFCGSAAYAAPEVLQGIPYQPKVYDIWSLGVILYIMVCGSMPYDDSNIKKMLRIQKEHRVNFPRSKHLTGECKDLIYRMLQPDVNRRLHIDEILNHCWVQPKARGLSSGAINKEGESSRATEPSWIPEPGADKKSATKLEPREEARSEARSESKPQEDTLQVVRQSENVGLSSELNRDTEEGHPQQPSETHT
property_measured: IC50 (nM)
Respond numerically; units are nM and should not be typed.

Given CN[C@@H]1C[C@H]2O[C@@](C)([C@@H]1OC)n1c3ccccc3c3c4c(c5c6ccccc6n2c5c31)C(=O)NC4 , respond with its IC50.
0.33

====

method_summary: Inhibition of Akt in human PTEN-null LNCAP cells assessed as suppression in PRAS40 phosphorylation after 1 hr by ELISA analysis
Format: cell-based
The reader will find reported IC50 values listed item by item below.
Respond numerically; units are nM and should not be typed.

Consider the following illustrative entries.
{"molecule": "Cn1ncc(Cl)c1-c1cc(C(=O)NC2(c3ccc(Cl)c(Cl)c3)CCNCC2)oc1Cl", "result_units": "nM", "IC50": 30.4}
{"molecule": "NC1(C(=O)N[C@@H](CCO)c2ccc(Cl)cc2)CCN(c2nc[nH]c3nccc2-3)CC1 [CAPIVASERTIB]", "result_units": "nM", "IC50": 337}

Next molecule, please.
Given Cn1ncc(Cl)c1-c1cc(C(=O)N[C@H](CN)Cc2ccc(F)c(F)c2)oc1Cl [UPROSERTIB] , respond with its IC50.
75.6

====

target: RAC-alpha serine/threonine-protein kinase (Homo sapiens, UniProt P31749)
Sequence (P31749 whole entry): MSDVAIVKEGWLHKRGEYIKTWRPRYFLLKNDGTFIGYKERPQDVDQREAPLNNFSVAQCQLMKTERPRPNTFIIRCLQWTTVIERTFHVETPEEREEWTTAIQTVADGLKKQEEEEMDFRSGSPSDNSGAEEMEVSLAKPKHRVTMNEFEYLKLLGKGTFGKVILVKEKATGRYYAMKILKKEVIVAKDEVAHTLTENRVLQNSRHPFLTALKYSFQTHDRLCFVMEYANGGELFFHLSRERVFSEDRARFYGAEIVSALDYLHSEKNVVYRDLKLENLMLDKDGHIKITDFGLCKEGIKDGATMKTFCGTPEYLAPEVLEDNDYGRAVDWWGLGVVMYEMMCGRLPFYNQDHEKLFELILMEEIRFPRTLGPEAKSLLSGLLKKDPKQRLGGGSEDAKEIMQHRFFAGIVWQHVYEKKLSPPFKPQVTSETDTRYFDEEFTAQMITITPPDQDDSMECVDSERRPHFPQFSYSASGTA
method_summary: Inhibition of Akt1 (unknown origin) expressed in Escherichia coli using peptide substrate after 1 hr by HTRF assay
The reader will find reported pIC50 values listed item by item below.
Scale explanation: pIC50 corresponds to minus log10 of a concentration expressed in moles per litre.

Consider the following illustrative entries.
{"smiles_data": "Cn1ncc(Cl)c1-c1ccc(C(=O)NC2(c3ccc(Cl)c(Cl)c3)CCNCC2)cc1", "target": "RAC-alpha serine/threonine-protein kinase (Homo sapiens, UniProt P31749)", "pIC50": 5.72}
{"smiles_data": "Cn1ncc(Br)c1-c1coc(C(=O)NC2(c3ccc(F)cc3)CCNCC2)c1", "target": "RAC-alpha serine/threonine-protein kinase (Homo sapiens, UniProt P31749)", "pIC50": 5.69}

Next compound, please.
Given Cn1nccc1-c1csc(C(=O)NC2(c3ccc(F)cc3)CCNCC2)c1 , respond with its pIC50.
6.04

====

method_summary: Antiproliferative activity against human HCT116 cells after 72 hrs by SRB assay
Type: functional, cell-based
run_conditions: HCT-116, 72 h
Label Condition met when IC50 is strictly below 7 µM; at or above that, label Condition not met.

# count of solved cases: 2
{"smiles_data": "Cn1nccc1-c1csc(C(=O)NC2(c3ccc(F)cc3)CCNCC2)c1", "class_label": "Condition not met"}
{"smiles_data": "Cn1ncc(Cl)c1-c1c(Cl)c(C(=O)NC2(c3ccc(Cl)c(Cl)c3)CCNCC2)n(C)c1Cl", "class_label": "Condition not met"}

Determine if Cn1ncc(Br)c1-c1oc(C(=O)NC2(c3ccc(Cl)c(Cl)c3)CCNCC2)cc1Br shows IC50 strictly lower than 7 µM.
Condition not met

Determine if Cn1ncc(Br)c1-c1coc(C(=O)NC2(c3ccc(F)cc3)CCNCC2)c1 shows IC50 strictly lower than 7 µM.
Condition not met

Determine if Cn1nccc1-c1csc(C(=O)NC2(c3ccc(Cl)c(Cl)c3)CCNCC2)c1 shows IC50 strictly lower than 7 µM.
Condition met

Determine if Cn1ncc(Br)c1-c1coc(C(=O)NC2(c3ccc(Cl)c(Cl)c3)CCNCC2)c1 shows IC50 strictly lower than 7 µM.
Condition met

Determine if Cn1ncc(Cl)c1-c1ccc(C(=O)NC2(c3ccc(Cl)c(Cl)c3)CCNCC2)cc1 shows IC50 strictly lower than 7 µM.
Condition not met

====

method_summary: Antiproliferative activity against human HCT116 cells after 72 hrs by SRB assay
Format: functional, cell-based
run_conditions: HCT-116, 72 h
property_measured: IC50 (µM)
Respond numerically; units are µM and should not be typed.

{"compound": "Cn1cc(-c2c(Br)cnn2C)cc1C(=O)NC1(c2ccc(Cl)c(Cl)c2)CCNCC1", "property_measured": "IC50", "value_reported": 12.9}

Given NC1(C(=O)N[C@@H](CCO)c2ccc(Cl)cc2)CCN(c2nc[nH]c3nccc2-3)CC1 [CAPIVASERTIB] , respond with its IC50.
5.2

Given Cn1nccc1-c1oc(C(=O)NC2(c3ccc(Cl)c(Cl)c3)CCNCC2)cc1Br , respond with its IC50.
24.8

Given Cn1ncc(Cl)c1-c1oc(C(=O)NC2(c3ccc(Cl)c(Cl)c3)CCNCC2)cc1Br , respond with its IC50.
6.97
